Assignment: determine reported GI50 for the given compounds.
Test system: ACHN renal
Assay: NCI tumour cell line growth inhibition, 48 h

Study these solved cases before continuing.
STRUCTURE SMILES	GI50
Cc1ccc2c(c1)C(=O)/C(=C/c1cccc(OCC(=O)c3ccc(Cl)cc3)c1)CS2	8.72 µM
CN(C)c1ccc(/C=N/n2c(CCCCc3n[nH]c(=S)n3/N=C/c3ccc(N(C)C)cc3)n[nH]c2=S)cc1	> 100 µM
O=C1/C=C/[C@@H](O)[C@@H]2C[C@@H](O)C[C@H]2/C=C/CCC[C@H](CCc2ccc(NC(=S)Nc3ccc4c(c3)C(=O)OC43c4ccc(O)cc4Oc4cc(O)ccc43)cc2)O1	0.803 µM

For each listed entry, give its GI50.
1. Cn1c2ccccc2c2c(=O)n(CCCC(=O)NCCc3cnc[nH]3)c3c(-c4ccccc4)nnn3c21
2. NS(=O)(=O)c1ccc(-n2nc(-c3ccccc3)cc2-c2cc(O)ccc2O)cc1

1. 9.74 µM
2. 89.8 µM
